# Test system: Pseudomonas aeruginosa
# Assay overview: Antibacterial activity against Pseudomonas aeruginosa ATCC BAA-427 after 24 hrs by NCCLS method
# Type: functional, organism-based
# Assay context: Pseudomonas aeruginosa, ATCC BAA-427, 24 h
Reported MIC values are given for each entry in this list.
Measure: MIC

• COC(=O)CC[C@@H](C)[C@H]1CC[C@H]2[C@@H]3CC[C@@H]4C[C@](O)(CNCCN)CC[C@]4(C)[C@H]3C[C@H](O)[C@]12C = 50 µg/mL
• COC(=O)CC[C@@H](C)[C@H]1CC[C@H]2[C@@H]3CC[C@@H]4C[C@](O)(CN=[N+]=[N-])CC[C@]4(C)[C@H]3C[C@H](O)[C@]12C = > 50 µg/mL
• COC(=O)CC[C@@H](C)[C@H]1CC[C@H]2[C@@H]3[C@H](O)C[C@@H]4C[C@](O)(CNCCN)CC[C@]4(C)[C@H]3C[C@H](O)[C@]12C = 50 µg/mL

* * *

# Test system: Escherichia coli
# Assay overview: Antibacterial activity against Escherichia coli ATCC 9637 after 24 hrs by NCCLS method
# Type: functional, organism-based
# Assay context: Escherichia coli, ATCC 9637, 24 h
Measure: MIC

* COC(=O)CC[C@@H](C)[C@H]1CC[C@H]2[C@@H]3[C@H](O)C[C@@H]4C[C@](O)(CNCCN)CC[C@]4(C)[C@H]3C[C@H](O)[C@]12C | 25 µg/mL
* COC(=O)CC[C@@H](C)[C@H]1CC[C@H]2[C@@H]3[C@H](O)C[C@@H]4C[C@](O)(CN)CC[C@]4(C)[C@H]3C[C@H](O)[C@]12C | > 50 µg/mL
* COC(=O)CC[C@@H](C)[C@H]1CC[C@H]2[C@@H]3CC[C@@H]4C[C@](O)(CN=[N+]=[N-])CC[C@]4(C)[C@H]3C[C@H](O)[C@]12C | > 50 µg/mL
* COC(=O)CC[C@@H](C)[C@H]1CC[C@H]2[C@@H]3CC[C@@H]4C[C@](O)(CN)CC[C@]4(C)[C@H]3C[C@H](O)[C@]12C | > 50 µg/mL
* COC(=O)CC[C@@H](C)[C@H]1CC[C@H]2[C@@H]3[C@H](O)C[C@@H]4C[C@](O)(CN=[N+]=[N-])CC[C@]4(C)[C@H]3C[C@H](O)[C@]12C | > 50 µg/mL

* * *

As shown below, each of these compounds has a reported IC50 value.
# System: Staphylococcus aureus
# Assay overview: Antibacterial activity against Staphylococcus aureus ATCC 25923 after 24 hrs by NCCLS method
# Format: functional, organism-based
# Assay context: ATCC 25923, 24 h
Measure: IC50 (µg/mL)

• COC(=O)CC[C@@H](C)[C@H]1CC[C@H]2[C@@H]3CC[C@@H]4C[C@](O)(CN)CC[C@]4(C)[C@H]3C[C@H](O)[C@]12C = 14.6
• COC(=O)CC[C@@H](C)[C@H]1CC[C@H]2[C@@H]3[C@H](O)C[C@@H]4C[C@](O)(CN)CC[C@]4(C)[C@H]3C[C@H](O)[C@]12C = 18.4
• COC(=O)CC[C@@H](C)[C@H]1CC[C@H]2[C@@H]3[C@H](O)C[C@@H]4C[C@](O)(CNCCN)CC[C@]4(C)[C@H]3C[C@H](O)[C@]12C = 4.12
• COC(=O)CC[C@@H](C)[C@H]1CC[C@H]2[C@@H]3CC[C@@H]4C[C@](O)(CNCCN)CC[C@]4(C)[C@H]3C[C@H](O)[C@]12C = 5.14
